Target or system Acetylcholinesterase (Homo sapiens): recorded IC50 listed per item.
Could you give me the number in µM? Just the number is fine.

Past entries and their recorded results:
>>> print(df.to_string())
                                   compound  measurement
0  CCN(CCCCCC(=O)N(C)CCCCCCCCN(C)C(=O)CCCCCN(CC)Cc1ccccc1Cl)Cc1ccccc1Cl        0.112
1  COc1cccc(CN(C)CCCCCC(=O)N(C)CCCCCCCCN(C)C(=O)CCCCCN(C)Cc2cccc(OC)c2)c1        0.676
2  CCCOc1ccccc1CN(CC)CCCCCC(=O)N(C)CCCCCCCCN(C)C(=O)CCCCCN(CC)Cc1ccccc1OCCC       0.0339
3  CCN(CCCCCC(=O)N(C)CCCCCCCCN(C)C(=O)CCCCCN(CC)Cc1ccccc1C(F)(F)F)Cc1ccccc1C(F)(F)F         4.57
4  CCN(CCCCCC(=O)N(C)CCCCCCCCN(C)C(=O)CCCCCN(CC)Cc1ccccc1C)Cc1ccccc1C       0.0562

// moving on: another record for IC50
Record lookup: for Acetylcholinesterase (Homo sapiens), what IC50 belongs to CC[N+](C)(CCCCCCOCCCCCCCCOCCCCCC[N+](C)(CC)Cc1ccccc1OC)Cc1ccccc1OC (stereo unspecified) ?
0.0776

// provenance: ChEMBL document CHEMBL1136713
